Measured values drawn from patent US7265130B2 for this set.

System under test: human NPY Y5 receptor (Homo sapiens, UniProt Q15761)
Construct: expressed in transfected cells
Sequence (Q15761 whole entry): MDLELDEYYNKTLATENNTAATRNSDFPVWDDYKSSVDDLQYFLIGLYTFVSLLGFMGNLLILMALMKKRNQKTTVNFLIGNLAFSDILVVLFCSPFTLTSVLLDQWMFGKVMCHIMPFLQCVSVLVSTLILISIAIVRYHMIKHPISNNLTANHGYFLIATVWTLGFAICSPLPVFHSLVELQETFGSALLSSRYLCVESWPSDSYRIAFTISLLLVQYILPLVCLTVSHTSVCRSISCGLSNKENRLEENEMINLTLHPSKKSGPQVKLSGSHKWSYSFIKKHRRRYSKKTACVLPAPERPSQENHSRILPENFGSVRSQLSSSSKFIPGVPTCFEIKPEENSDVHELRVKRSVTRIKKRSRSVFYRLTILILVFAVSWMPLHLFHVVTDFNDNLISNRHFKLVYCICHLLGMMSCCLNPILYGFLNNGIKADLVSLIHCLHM
Experiment summary: cAMP production inhibitory activity in CHO cells
Type: cell-based
Cond: against 50 nM NPY inhibition of forskolin stimulated cAMP, CHO cells expressing human NPY Y5 receptor
Procedure: Experiment 2 cAMP production inhibitory activity in CHO cells After CHO cells expressing human NPY Y5 receptor were incubated in the presence of 2.5 mM isobutylmethylxanthine (SIGMA) at 37° C. for 20 min., the compound of the present invention was added and incubated for 5 min. […] After the reaction was terminated by adding 1N HCl, the amount of cAMP in the supernatant was measured with EIA kit (Amersham LIFE SCIENCE).
Please map values of IC50 to classes as shown: lowest: < 20 nM; middle: ≥ 20 nM and < 30 nM; highest: ≥ 30 nM

>>> group("CC(C)(C)S(=O)(=O)NC1CCN(C(=O)Nc2cnc(-c3ccccc3)cn2)CC1")
"highest"
>>> group("Cc1cc(N2C[C@@H](C)O[C@@H](C)C2)ccc1NC(=O)C1CCC(NS(=O)(=O)C(C)C)CC1 (stereo partly drawn)")
"lowest"
>>> group("C[C@@H]1CN(S(=O)(=O)c2ccc(NC(=O)C3CCC(NS(=O)(=O)C(C)(C)C)CC3)cc2)C[C@H](C)O1 (stereo partly drawn)")
"middle"
>>> group("CN1C(=O)c2ccc(NC(=O)CCCCNS(=O)(=O)C(C)(C)C)cc2C1=O")
"highest"
>>> group("CC(C)S(=O)(=O)NC1CCN(C(=O)Nc2ccc(C3CCCCC3)cc2)CC1")
"lowest"
>>> group("CC(C)NC(=O)c1cccc(NC(=O)C2CCC(NS(=O)(=O)C(C)(C)C)CC2)c1 (stereo not drawn)")
"lowest"
>>> group("CC(C)S(=O)(=O)NCCCCC(=O)Nc1ccc2c(c1)C(=O)N(c1ccccc1)C2=O")
"middle"
>>> group("C[C@@H]1CN(c2c(F)c(F)c(NC(=O)C3CCC(NS(=O)(=O)C(C)(C)C)CC3)c(F)c2F)C[C@H](C)O1 (stereo partly drawn)")
"middle"
>>> group("CC(C)(C)S(=O)(=O)NC1CCC(C(=O)Nc2ccc3oc(=O)ccc3c2)CC1 (stereo not drawn)")
"middle"
>>> group("COC(=O)CCCc1ccc(NC(=O)C2CCC(NS(=O)(=O)C(C)(C)C)CC2)cc1 (stereo not drawn)")
"middle"
>>> group("CC(C)[C@@H]1CN(c2ccc(NC(=O)C3CCC(NS(=O)(=O)C(C)(C)C)CC3)cc2)CCO1 (stereo partly drawn)")
"lowest"
>>> group("CC(C)(C)S(=O)(=O)Nc1ccc(C(=O)Nc2ccc(-c3cccs3)cc2)cc1")
"middle"

---

System under test: human NPY Y5 receptor (Homo sapiens)
Construct: expressed in transfected cells
Experiment summary: Affinity for NPY Y5 receptor ([125I] peptide YY binding, CHO cell membranes)
Cond: inhibition of specific [125I] peptide YY binding, membranes of CHO cells expressing NPY Y5 receptor
Please assign not fulfilled whenever IC50 is at or above 0.9 nM, and fulfilled whenever it is below.

>>> group("CC(C)CN1C(=O)c2ccc(NC(=O)[C@H]3CC[C@H](NS(=O)(=O)C(C)(C)C)CC3)cc2C1=O")
"fulfilled"
>>> group("C[C@@H]1CN(c2ccc(NC(=O)N3CCC(NS(=O)(=O)C(C)(C)C)CC3)cc2)C[C@H](C)O1")
"not fulfilled"
>>> group("CCCCOc1ccc(NC(=O)C2CCC(NS(=O)(=O)C(C)(C)C)CC2)cn1 (centres unmarked)")
"fulfilled"
>>> group("Cc1ccc2nc(-c3ccc(NC(=O)C4CCC(NS(=O)(=O)C(C)(C)C)CC4)cc3)sc2c1 (centres unmarked)")
"fulfilled"
>>> group("CN1C(=O)c2ccc(NC(=O)C3CCC(NS(=O)(=O)C(C)(C)C)CC3)cc2C1=O (centres unmarked)")
"fulfilled"
>>> group("CC(C)(C)S(=O)(=O)NC1CCC(C(=O)Nc2cccc(OC(F)(F)C(F)F)c2)CC1 (centres unmarked)")
"fulfilled"
>>> group("CC(C)(C)S(=O)(=O)Nc1ccc(C(=O)Nc2ccc(-c3ncco3)cc2)cc1")
"not fulfilled"
>>> group("CC(C)(C)S(=O)(=O)NC1CCC(C(=O)Nc2ccc(N(CCO)CCO)cc2)CC1 (centres unmarked)")
"not fulfilled"
>>> group("CC(C)(C)S(=O)(=O)Nc1ccc(NC(=O)C2CCC(NS(=O)(=O)C(C)(C)C)CC2)cc1 (centres unmarked)")
"not fulfilled"
>>> group("CC(C)S(=O)(=O)NC1CCC(C(=O)Nc2ccc3c(c2)OCO3)CC1 (centres unmarked)")
"fulfilled"
>>> group("Cc1ccc(NC(=O)C2CCC(NS(=O)(=O)C(C)(C)C)CC2)cc1F (centres unmarked)")
"not fulfilled"
>>> group("CC(C)(C)S(=O)(=O)NCCCCC(=O)Nc1ccc(N2CCCS2(=O)=O)cc1")
"not fulfilled"
>>> group("CCc1ccc(NC(=O)C2CCC(NS(=O)(=O)C(C)(C)C)CC2)cc1 (centres unmarked)")
"not fulfilled"
>>> group("CC(C)(C)S(=O)(=O)NC1CCC(C(=O)Nc2ccc(S(=O)(=O)NC3CCCCC3)cc2)CC1 (centres unmarked)")
"not fulfilled"
>>> group("CC(C)[C@@H]1CN(c2ccc(NC(=O)C3CCC(NS(=O)(=O)C(C)(C)C)CC3)cc2)CCO1 (some centres unmarked)")
"fulfilled"
>>> group("Cc1cc(C(=O)NC(C)C)ccc1NC(=O)C1CCC(NS(=O)(=O)C(C)(C)C)CC1 (centres unmarked)")
"not fulfilled"
>>> group("CC(C)CN1C(=O)c2ccc(NC(=O)CCCCNS(=O)(=O)C(C)(C)C)cc2C1=O")
"fulfilled"
>>> group("COc1ccc(NC(=O)C2CCC(NS(=O)(=O)C(C)(C)C)CC2)cc1 (centres unmarked)")
"fulfilled"
>>> group("CC(C)(C)S(=O)(=O)NC1CCC(C(=O)Nc2ccc3occc3c2)CC1 (centres unmarked)")
"not fulfilled"

---

System under test: human NPY Y5 receptor (Homo sapiens)
Construct: expressed in transfected cells
Experiment summary: cAMP production inhibitory activity in CHO cells
Type: cell-based
Cond: against 50 nM NPY inhibition of forskolin stimulated cAMP, CHO cells expressing human NPY Y5 receptor
pIC50: −log10 of the molar value.
This section presents molecules with their documented pIC50 values.
Recorded endpoint: pIC50

>>> value("CC(C)(C)S(=O)(=O)NC1CCC(C(=O)Nc2ccc(OC(F)(F)F)cc2)CC1 (stereo not shown)")
8.72
>>> value("CC(C)(C)S(=O)(=O)NC1CCC(C(=O)Nc2ccc(I)cc2)CC1 (stereo not shown)")
7.83
>>> value("CC(C)S(=O)(=O)NCCCCC(=O)Nc1ccc(N2C[C@@H](C)O[C@@H](C)C2)cc1")
6.82
>>> value("CC(C)(C)S(=O)(=O)NC1CCC(C(=O)Nc2ccc(NS(C)(=O)=O)cc2)CC1 (stereo not shown)")
6.43
>>> value("CCOC(=O)C1CCN(c2ccc(NC(=O)C3CCC(NS(=O)(=O)C(C)(C)C)CC3)cc2)CC1 (stereo not shown)")
7.33
>>> value("CCCCOc1ccc(NC(=O)C2CCC(NS(=O)(=O)C(C)(C)C)CC2)c(N)c1 (stereo not shown)")
7.44
>>> value("CC(=O)c1ccc(NC(=O)C2CCC(NS(=O)(=O)C(C)(C)C)CC2)cc1 (stereo not shown)")
7.52
>>> value("CC(C)(C)S(=O)(=O)NC1CCC(C(=O)Nc2ccc(-c3ccno3)cc2)CC1 (stereo not shown)")
7.72
>>> value("C[C@@H]1CN(c2ccc(NC(=O)C3CCC(NS(=O)(=O)C(C)(C)C)CC3)c(F)c2F)C[C@H](C)O1 (stereo partly shown)")
8.14
>>> value("Cn1nnnc1-c1ccc(NC(=O)[C@H]2CC[C@H](NS(=O)(=O)C(C)(C)C)CC2)cc1")
7.48
>>> value("C[C@@H]1CN(c2ccc(NC(=O)c3ccc(NS(=O)(=O)C(C)(C)C)cc3)cc2)C[C@H](C)O1")
7.66
>>> value("CC(C)(C)S(=O)(=O)NC1CCC(C(=O)Nc2ccc(-n3cnc(Cl)c3Cl)cc2)CC1 (stereo not shown)")
7.80
>>> value("CC(C)(C)S(=O)(=O)Nc1ccc(C(=O)Nc2ccc(OC3CCCC3)cc2)cc1")
8.59
>>> value("CCCCOc1ccc(NC(=O)C2CCC(NS(=O)(=O)C(C)(C)C)CC2)c(O)c1 (stereo not shown)")
7.33
>>> value("CC(C)(C)S(=O)(=O)NC1CCC(C(=O)Nc2ccc(OC3CCOCC3)cc2)CC1 (stereo not shown)")
7.74
>>> value("CC(C)(C)S(=O)(=O)NC1CCC(C(=O)Nc2ccc(Oc3ccccc3)nc2)CC1 (stereo not shown)")
7.49
>>> value("CC(C)(C)S(=O)(=O)NC1CCC(C(=O)Nc2ccc(OCC3CCCCO3)cc2)CC1 (stereo not shown)")
6.34
>>> value("CC(C)S(=O)(=O)NC1CCN(C(=O)Nc2ccc(C(F)(F)F)cc2)CC1")
7.74
>>> value("CCCCc1ccc(NC(=O)C2CCC(CNS(=O)(=O)C(C)(C)C)CC2)cc1 (stereo not shown)")
7.15
